# Tested on: human platelets
# Assay Explanation: collagen-evoked aggregation of washed human platelets
# Type: cell-based
# Assay Context: Homo sapiens, Platelet, washed human platelets, collagen 2 μg; read-out: IC50 for inhibition of collagen-evoked aggregation
pIC50: −log10 of the molar value.
Property Measured: pIC50

- Compound: "CCCCC/C=C\\CC1CC1[C@@H](O)/C=C\\C/C=C\\CCCC(=O)OC (stereo partly shown)"
  Property Measured: "pIC50"
  Result: "~6.10"

----------
# Tested On: TP receptor (Homo sapiens)
# Construct: endogenous in cells; host or cells: washed human platelets
# Sequence (P21731 whole entry): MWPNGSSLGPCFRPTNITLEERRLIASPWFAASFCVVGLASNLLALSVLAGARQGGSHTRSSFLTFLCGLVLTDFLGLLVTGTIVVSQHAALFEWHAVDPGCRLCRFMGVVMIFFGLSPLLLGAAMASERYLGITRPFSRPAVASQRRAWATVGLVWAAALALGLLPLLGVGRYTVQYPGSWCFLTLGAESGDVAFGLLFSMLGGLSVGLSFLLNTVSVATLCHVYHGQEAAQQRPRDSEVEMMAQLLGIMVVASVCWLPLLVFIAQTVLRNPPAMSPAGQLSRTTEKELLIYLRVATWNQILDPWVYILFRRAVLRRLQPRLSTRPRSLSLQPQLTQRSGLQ
# Assay Explanation: platelet aggregation evoked by I-BOP
# Assay type: cell-based
# Assay Context: I-BOP 2 ng/0.5 ml; read-out: IC50 for inhibition of aggregation evoked by I-BOP

- Compound: "CCCCC/C=C\\CC1CC1[C@@H](O)/C=C\\C/C=C\\CCCC(=O)OC (stereo partly shown) [PBT-3]"
  IC50 / µM: 0.06

Numbers sourced from patent US8071654B2.
